The compounds listed here are annotated with their IC50.
target: UniProt:Q63470; assay: Inhibition of rat recombinant DYRK1A-GST expressed in Escherichia coli using KKISGRLSPIMTEQ as substrate

Completed entries (count: 5):
| test_smiles | IC50 |
| --- | --- |
| COc1ccc2c(c1)sc1c(Nc3ccc(Cl)cc3)ncnc12 | > 10 µM |
| COc1ccc2c(c1)sc1c(Nc3cccc(Cl)c3)ncnc12 | > 10 µM |
| COc1ccc2c(c1)oc1c(Nc3ccc(F)cc3F)ncnc12 | > 10 µM |
| COc1ccc2c(c1)oc1c(Nc3ccccc3)ncnc12 | > 10 µM |
| COc1ccc2c(c1)sc1c(Nc3cccc(C)c3)ncnc12 | 6.1 µM |

Reported IC50 ( `COc1ccc2c(c1)oc1c(Nc3ccc(N(C)C)cc3)ncnc12` ) = > 10 µM

Lab note: measured IC50 of `COc1ccc2c(c1)sc1c(Nc3ccc(F)cc3)ncnc12` was > 10 µM
